- STUDY_SYSTEM: Human factor D (Homo sapiens)
- Construct: purified from human serum; purchased Complement Technology, Inc; host or cells: human serum
- Sequence (P00746 26-253): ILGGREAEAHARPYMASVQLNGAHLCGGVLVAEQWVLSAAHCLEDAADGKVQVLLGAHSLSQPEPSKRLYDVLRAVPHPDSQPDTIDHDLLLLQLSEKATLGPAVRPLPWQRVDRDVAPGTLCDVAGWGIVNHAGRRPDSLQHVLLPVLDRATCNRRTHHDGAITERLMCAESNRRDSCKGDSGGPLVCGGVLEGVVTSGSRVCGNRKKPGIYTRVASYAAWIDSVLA
- PROTOCOL_SUMMARY: Human Factor D Assay
- Assay type: biochemical
- MEASUREMENT_CONTEXT: human factor D 80 nM, substrate Z-L-Lys-SBzl, assay of Example 7; read-out: IC50
pIC50: −log10 of the molar value.
Property: pIC50; scope: individual compounds

For reference, reported pIC50 for COc1ncc(-c2ccc3c(c2)c(C(N)=O)nn3CC(=O)N2C[C@H](F)C[C@H]2C(=O)Nc2cccc(-c3ccccc3Cl)c2F)cn1 [Compound 29] stands at > 6.00

The reported pIC50 of the compound Cc1nc2sccn2c1-c1csc(NC(=O)[C@@H]2C[C@@H](F)CN2C(=O)Cn2nc(C(N)=O)c3cc(-c4ccnnc4)ccc32)n1 [Compound 58] was < 5.00

compound NC(=O)c1nn(CC(=O)N2C[C@H](F)C[C@H]2C(=O)Nc2ccccc2-c2nc3ccccc3s2)c2ccc(-c3ccnnc3)cc12 [Compound 41] , pIC50 observed: < 5.00

So, CC(=O)c1cn(CC(=O)N2[C@@H]3C[C@@H]3C[C@H]2C(=O)Nc2cccc(Br)n2)c2ccc(-c3cnc(C)nc3)cc12 [Compound 132] ? Its pIC50 was > 6.00

Data provenance is patent US20160362399A1.
